- assay-system: human mGlu2 receptor (Homo sapiens)
- Construct: expressed in transfected cells; host or cells: CHO cells
- Sequence (Q14416 19-872): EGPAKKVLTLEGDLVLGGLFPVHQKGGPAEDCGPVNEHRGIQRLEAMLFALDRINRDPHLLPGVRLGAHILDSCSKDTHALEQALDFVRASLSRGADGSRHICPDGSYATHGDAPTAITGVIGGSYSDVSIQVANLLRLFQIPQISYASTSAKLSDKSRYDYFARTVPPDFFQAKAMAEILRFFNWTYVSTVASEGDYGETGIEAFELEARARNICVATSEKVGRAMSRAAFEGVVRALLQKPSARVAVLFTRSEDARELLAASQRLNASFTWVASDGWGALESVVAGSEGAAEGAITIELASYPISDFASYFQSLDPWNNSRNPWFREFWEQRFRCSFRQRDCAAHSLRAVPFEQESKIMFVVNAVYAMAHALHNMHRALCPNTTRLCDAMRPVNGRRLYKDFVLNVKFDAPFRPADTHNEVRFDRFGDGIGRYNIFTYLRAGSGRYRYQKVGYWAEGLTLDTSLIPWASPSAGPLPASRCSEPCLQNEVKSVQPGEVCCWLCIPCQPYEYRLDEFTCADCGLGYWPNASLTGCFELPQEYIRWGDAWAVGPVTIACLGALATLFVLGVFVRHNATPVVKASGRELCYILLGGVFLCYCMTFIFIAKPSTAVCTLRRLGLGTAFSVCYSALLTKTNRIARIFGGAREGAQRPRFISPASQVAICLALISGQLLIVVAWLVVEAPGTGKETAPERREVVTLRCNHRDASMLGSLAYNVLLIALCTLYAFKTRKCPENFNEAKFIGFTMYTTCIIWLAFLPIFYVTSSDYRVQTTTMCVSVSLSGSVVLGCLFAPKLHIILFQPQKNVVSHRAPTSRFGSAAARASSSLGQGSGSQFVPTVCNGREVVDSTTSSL
- experimental-details: [35S]GTPγS binding assay (mGluR2 negative allosteric modulation, glutamate ~EC80 60 μM)
- Assay type: biochemical
- test-context: membranes from CHO cells transfected with human mGlu2 receptor; glutamate ~EC80 (60 μM); pIC50 = −log IC50 (M); read-out: GTPγS-hmGluR2 anGT pIC50 (converted)
measure: IC50 (M)

Take a look at these entries with their results.
compound: Cc1cc(C(=O)Nc2cnn3c2C(=O)N(c2ccc(C(F)(F)F)cc2)C[C@@H]3C)ccn1
IC50 [M]: 6.92e-09
//
compound: COCC1CN(c2ccc(C(F)(F)F)cc2)C(=O)c2c(NC(=O)c3ccc(N)nc3)cnn21 (single isomer, unassigned) [Co. No. 95]
IC50 [M]: 6.31e-09

P: Cc1ncccc1C(=O)Nc1cnn2c1C(=O)N(c1ccc(C(F)(F)F)cc1)C[C@@H]2C
Q: C[C@H]1CN(c2ccc(C(F)(F)F)c(Cl)c2)C(=O)c2c(NC(=O)c3ccccc3)cnn21
Prompt: Hi! Which is lower in terms of IC50, the first one P or the second one Q ? State the label of the item chosen.
Response: Q

====

- assay-system: human mGlu2 receptor (Homo sapiens)
- Construct: expressed in transfected cells; host or cells: CHO cells
- experimental-details: [35S]GTPγS binding assay (mGluR2 negative allosteric modulation, glutamate ~EC80 60 μM)
- Format: biochemical
- test-context: membranes from CHO cells transfected with human mGlu2 receptor; glutamate ~EC80 (60 μM); pIC50 = −log IC50 (M); read-out: GTPγS-hmGluR2 anGT pIC50 (converted)
measure: IC50 (M)

molecule: C[C@H]1CN(c2ccc(C(F)(F)F)cc2)C(=O)c2c(NC(=O)c3cccc(F)c3)cnn21
assay-system: human mGlu2 receptor (Homo sapiens)
IC50 (M): 2.75e-09
//
molecule: C[C@H]1CN(c2ccc(Cl)c(Cl)c2)C(=O)c2c(NC(=O)c3ccccn3)cnn21
assay-system: human mGlu2 receptor (Homo sapiens)
IC50 (M): 2.63e-09
//
molecule: Cc1cc(N2C[C@H](C)n3ncc(NC(=O)c4cccnc4)c3C2=O)ccc1C(F)(F)F
assay-system: human mGlu2 receptor (Homo sapiens)
IC50 (M): 4.57e-09
//
molecule: COc1ccc(C(=O)Nc2cnn3c2C(=O)N(c2ccc(C(F)(F)F)c(OC)n2)C[C@@H]3C)cc1
assay-system: human mGlu2 receptor (Homo sapiens)
IC50 (M): 7.76e-08
//
molecule: C[C@H]1CN(c2ccc(C(F)(F)F)cc2)C(=O)c2c(NC(=O)c3ccc(C(N)=O)cn3)cnn21
assay-system: human mGlu2 receptor (Homo sapiens)
IC50 (M): 1.12e-07
//
molecule: Cc1cnc(N)c(C(=O)Nc2cnn3c2C(=O)N(c2ccc(Cl)c(Cl)c2)C[C@@H]3C)c1
assay-system: human mGlu2 receptor (Homo sapiens)
IC50 (M): 9.77e-10
//
molecule: COc1cc(F)ccc1C(=O)Nc1cnn2c1C(=O)N(c1ccc(C(F)(F)F)cc1)C[C@@H]2C
assay-system: human mGlu2 receptor (Homo sapiens)
IC50 (M): 2.19e-08
//
molecule: C[C@H]1CN(c2ccc(C(F)(F)F)cc2)C(=O)c2c(NC(=O)C3CCOCC3)cnn21
assay-system: human mGlu2 receptor (Homo sapiens)
IC50 (M): 7.08e-07
//
molecule: Cc1ccc(C(=O)Nc2cnn3c2C(=O)N(c2ccc(C(F)(F)F)cc2)C[C@@H]3C)cc1
assay-system: human mGlu2 receptor (Homo sapiens)
IC50 (M): 1.78e-08
//
molecule: COc1cc(C(=O)Nc2cnn3c2C(=O)N(c2ccc(C(F)(F)F)cc2)C[C@@H]3C)ccc1F
assay-system: human mGlu2 receptor (Homo sapiens)
IC50 (M): 1.45e-08

I: C[C@H]1CN(c2ccc(C(F)(F)F)cc2)C(=O)c2c(NC(=O)c3ccccc3F)cnn21
II: Cc1cccnc1C(=O)Nc1cnn2c1C(=O)N(c1ccc(C(F)(F)F)cc1)C[C@@H]2C
Prompt: Hi! Which is lower in terms of IC50, the first one I or the second one II ? State the label of the item chosen.
Response: I
(I: 2.57e-09 M, II: 2.04e-08 M)

====

- assay-system: human mGlu2 receptor (Homo sapiens)
- Construct: expressed in transfected cells; host or cells: CHO cells
- experimental-details: [35S]GTPγS binding assay (mGluR2 negative allosteric modulation, glutamate ~EC80 60 μM)
- Type: biochemical
- test-context: maximal % inhibition relative to the control glutamate response (EC80 glutamate); read-out: GTPγS-hmGluR2 anGT Emax
measure: Emax (%)

compound: C[C@H]1CN(c2ccc(C(F)(F)F)c(Cl)c2)C(=O)c2c(NC(=O)c3cccnc3)cnn21
measure: Emax
unit-abbreviation: %
observed-value: 106
--
compound: C[C@H]1CN(c2ccc(C(F)(F)F)cc2)C(=O)c2c(NC(=O)c3ccccc3F)cnn21
measure: Emax
unit-abbreviation: %
observed-value: 104
--
compound: COc1ccnc(N)c1C(=O)Nc1cnn2c1C(=O)N(c1ccc(C(F)(F)F)cc1)C[C@@H]2C (racemic)
measure: Emax
unit-abbreviation: %
observed-value: 106
--
compound: C[C@H]1CN(c2ccc(C(F)(F)F)cc2)C(=O)c2c(NC(=O)c3cncc(F)c3)cnn21
measure: Emax
unit-abbreviation: %
observed-value: 114
--
compound: COc1cc(N2C[C@H](C)n3ncc(NC(=O)c4cccnc4)c3C2=O)ccc1C(F)(F)F
measure: Emax
unit-abbreviation: %
observed-value: 106
--
compound: C[C@H]1CN(c2ccc(C(F)(F)F)cc2)C(=O)c2c(NC(=O)c3cnn(C)c3)cnn21
measure: Emax
unit-abbreviation: %
observed-value: 103
--
compound: Cc1c(F)cncc1C(=O)Nc1cnn2c1C(=O)N(c1ccc(C(F)(F)F)cc1)C[C@@H]2C
measure: Emax
unit-abbreviation: %
observed-value: 106
--
compound: Cc1nccc(C(=O)Nc2cnn3c2C(=O)N(c2ccc(C(F)(F)F)cc2)C[C@@H]3C)c1C
measure: Emax
unit-abbreviation: %
observed-value: 105
--
compound: Cc1cc(C(=O)Nc2cnn3c2C(=O)N(c2ccc(Cl)cc2)C[C@@H]3C)cc(C)n1
measure: Emax
unit-abbreviation: %
observed-value: 112
--
compound: C[C@H]1CN(c2ccc(C(F)(F)F)cn2)C(=O)c2c(NC(=O)c3ccc(N)nc3)cnn21
measure: Emax
unit-abbreviation: %
observed-value: 103
--
compound: Cc1cc(N2C[C@H](C)n3ncc(NC(=O)c4cnccn4)c3C2=O)ccc1C(F)(F)F
measure: Emax
unit-abbreviation: %
observed-value: 106
--
compound: COc1cc(N2C[C@H](C)n3ncc(NC(=O)c4cnccn4)c3C2=O)ccc1C(F)(F)F
measure: Emax
unit-abbreviation: %
observed-value: 108
--
compound: C[C@H]1CN(c2ccc(Cl)cc2)C(=O)c2c(NC(=O)c3cccnc3N)cnn21
measure: Emax
unit-abbreviation: %
observed-value: 109
--
compound: Cc1cc(N)ncc1C(=O)Nc1cnn2c1C(=O)N(c1ccc(C(F)(F)F)c(Cl)c1)C[C@@H]2C
measure: Emax
unit-abbreviation: %
observed-value: 108
--
compound: Cc1ccc(C(=O)Nc2cnn3c2C(=O)N(c2ccc(C(F)(F)F)cc2)C[C@@H]3C)cc1
measure: Emax
unit-abbreviation: %
observed-value: 104
--
compound: COc1cncc(C(=O)Nc2cnn3c2C(=O)N(c2ccc(C(F)(F)F)c(OC)c2)C[C@@H]3C)c1
measure: Emax
unit-abbreviation: %
observed-value: 106
--
compound: C[C@H]1CN(c2ccc(OC(F)(F)F)cc2)C(=O)c2c(NC(=O)c3cccnc3)cnn21
measure: Emax
unit-abbreviation: %
observed-value: 105
--
compound: C[C@H]1CN(c2ccc(C(F)(F)F)cc2)C(=O)c2c(NC(=O)c3ccc(N)nn3)cnn21
measure: Emax
unit-abbreviation: %
observed-value: 97
--
compound: Cc1cnc(N)c(C(=O)Nc2cnn3c2C(=O)N(c2ccc(C(F)(F)F)c(C)c2)C[C@@H]3C)c1
measure: Emax
unit-abbreviation: %
observed-value: 108
--
compound: C[C@H]1CN(c2ccc(C(F)(F)F)c(Cl)c2)C(=O)c2c(NC(=O)c3ccccc3)cnn21
measure: Emax
unit-abbreviation: %
observed-value: 105
--
compound: COc1cc(N2C[C@H](C)n3ncc(NC(=O)c4ccccn4)c3C2=O)ccc1C(F)(F)F
measure: Emax
unit-abbreviation: %
observed-value: 105
--
compound: C[C@H]1CN(c2ccc(C(F)(F)F)cc2)C(=O)c2c(NC(=O)c3cccc(F)c3)cnn21
measure: Emax
unit-abbreviation: %
observed-value: 102
--
compound: COc1ccc(C(=O)Nc2cnn3c2C(=O)N(c2ccc(C(F)(F)F)cc2)C[C@@H]3C)cc1
measure: Emax
unit-abbreviation: %
observed-value: 104
--
compound: C[C@H]1CN(c2ccc(SC(F)(F)F)cc2)C(=O)c2c(NC(=O)c3cccnc3)cnn21
measure: Emax
unit-abbreviation: %
observed-value: 106
--
compound: C[C@H]1CN(c2ccc(Cl)cc2)C(=O)c2c(NC(=O)c3ccc(N)nc3)cnn21
measure: Emax
unit-abbreviation: %
observed-value: 110
--
compound: C[C@H]1CN(c2ccc(C(F)(F)F)c(Cl)c2)C(=O)c2c(NC(=O)c3cccnc3N)cnn21
measure: Emax
unit-abbreviation: %
observed-value: 110
--
compound: Cc1cc(C(=O)Nc2cnn3c2C(=O)N(c2ccc(C(F)(F)F)c(C)c2)C[C@@H]3C)cc(C)n1
measure: Emax
unit-abbreviation: %
observed-value: 107
--
compound: COCC1CN(c2ccc(C(F)(F)F)cc2)C(=O)c2c(NC(=O)c3ccc(N)nc3)cnn21 (single isomer, unassigned)
measure: Emax
unit-abbreviation: %
observed-value: 95
--
compound: COc1c(F)cccc1C(=O)Nc1cnn2c1C(=O)N(c1ccc(C(F)(F)F)cc1)C[C@@H]2C
measure: Emax
unit-abbreviation: %
observed-value: 117
--
compound: Cc1cncc(C(=O)Nc2cnn3c2C(=O)N(c2ccc(Cl)cc2)C[C@@H]3C)c1
measure: Emax
unit-abbreviation: %
observed-value: 107
